Test system: SK-MEL-2 melanoma
Experiment: NCI tumour cell line growth inhibition, 48 h
readout.name: TGI (µM)
Report the value in µM with no unit label.

In one line, give reported TGI of the entry Cc1cc(C)c(O)c(CN(C)Cc2cc(Cl)cc(Cl)c2O)c1 . 19.6

In one line, give reported TGI of the entry CC(=O)OC1CC2(O)C3CCC4CC(O)CCC4(C)C3CCC2(C)C1C1=CC(=O)OC1 (stereo not given) . 0.505

In one line, give reported TGI of the entry CCCCc1ccc(Nc2ncc3[nH]cnc3n2)cc1 . 53.3

In one line, give reported TGI of the entry C=C1C(=O)OCC2C(C(=O)O)=CC3C(C)C(C)=CC123 (stereo not given) . 15.1

In one line, give reported TGI of the entry C=C(C)C(=O)[C@@]12C(=O)[C@@H](C)CC[C@H]1[C@H](C)C[C@@H]2C=C(C)C . 26.7

In one line, give reported TGI of the entry O=C(Nc1ccccc1O)c1ccc(Oc2cccc(C(=O)Nc3ccccc3O)c2)cc1 . 5.87

In one line, give reported TGI of the entry COc1cc2c[n+](C)c3c4ccccc4ccc3c2cc1OC (tested in a mixture with another compound) . 21.8

In one line, give reported TGI of the entry N#C[S-].[Nd+3].c1ccc(-c2ccccn2)nc1.c1ccc(-c2ccccn2)nc1.c1ccc(-c2ccccn2)nc1 . 51.5

In one line, give reported TGI of the entry Cc1cc(-c2nc3ccccc3s2)ccc1NC(=O)[C@H](C)N . 34.3

In one line, give reported TGI of the entry CN(C)CCNC(=O)c1cccc2nc3c(nc12)-c1ccccc1C3=O . 32.4

----------
Test system: SF-295 CNS
Experiment: NCI tumour cell line growth inhibition, 48 h
If the reported TGI equals or exceeds 8 µM, assign True. If not, assign False.

Does TGI meet or surpass 8 µM for CCCCCCCCCCCCSC(=N)N ? False

Does TGI meet or surpass 8 µM for CCOC(=O)/C=C(\C(=O)OCC)n1ccc(N)nc1=O ? True

Does TGI meet or surpass 8 µM for CCOC(=O)/C=C/C(C(=O)/C=C/c1ccc(O)c(OC)c1)=C(O)\C=C\c1ccc(O)c(OC)c1 ? True

Does TGI meet or surpass 8 µM for Cc1cccc(C2=NC(C)(C)C(C)(C)N=C2c2cccc(C)n2)n1 ? True

Does TGI meet or surpass 8 µM for O=C(c1ccco1)c1c(C(F)(F)F)n([O-])c2ccccc2[n+]1=O ? False

Does TGI meet or surpass 8 µM for O=C(O)c1cc(N=Cc2ccccc2O)cc(C(=O)O)c1 ? True

Does TGI meet or surpass 8 µM for C(=C\c1ccccc1)/C=N/c1nc2cc3sc(/N=C/C=C/c4ccccc4)nc3cc2s1 ? True

Does TGI meet or surpass 8 µM for COc1ccc2c(c1)N=C1CSC(c3ccccc3Cl)N1C2 (centres undefined) ? True

Does TGI meet or surpass 8 µM for O=C(OCc1ccccc1)C1(N2CN(C3(C(=O)OCc4ccccc4)CCCC3)CN(C3(C(=O)OCc4ccccc4)CCCC3)C2)CCCC1 ? True

Does TGI meet or surpass 8 µM for N#C[S-].[Nd+3].c1ccc(-c2ccccn2)nc1.c1ccc(-c2ccccn2)nc1.c1ccc(-c2ccccn2)nc1 ? False

Does TGI meet or surpass 8 µM for CN(C)CCNC(=O)c1cccc2nc3c(nc12)-c1ccccc1C3=O ? True

Does TGI meet or surpass 8 µM for Cc1cc(C)c(O)c(CN(C)Cc2cc(Cl)cc(Cl)c2O)c1 ? False

Does TGI meet or surpass 8 µM for Cc1nc2ccc(S(=O)(=O)O)cc2c(=O)n1-c1ccc(C(=O)NN2C(=O)C(Cl)C2c2ccccc2O)cc1 (centres undefined) ? True

Does TGI meet or surpass 8 µM for Cc1cccc(NC(=O)C(=O)C(C(=O)c2ccccc2F)C2OC(=O)c3ccccc32)c1Cl (centres undefined) ? True

Does TGI meet or surpass 8 µM for C=C1C(=O)OCC2C(C(=O)O)=CC3C(C)C(C)=CC123 (centres undefined) ? True

Does TGI meet or surpass 8 µM for COC(=O)/C=C/c1cc(O)c2c(c1)[C@H](C(=O)OC)[C@@H](c1ccc(O)c(O)c1)O2 ? True

Does TGI meet or surpass 8 µM for O=C(CC(=O)N1N=C(N2c3ccccc3Sc3ccccc32)CC1c1ccccc1)Nc1ccc(Cl)cc1 (centres undefined) ? True

Does TGI meet or surpass 8 µM for O=[N+]([O-])c1ccc(N=Nc2c(O)c(S(=O)(=O)O)cc3cc(S(=O)(=O)O)ccc23)cc1 ? True

Does TGI meet or surpass 8 µM for O=C(N/N=C/c1cc(Cl)cc(Cl)c1[O-])c1ccccc1O.O=C(N/N=C/c1cc(Cl)cc(Cl)c1[O-])c1ccccc1O.[Ni+2] ? False

----------
Would you mind telling me the reported TGI of each entry?
Tested on: OVCAR-5 ovarian
Assay: NCI tumour cell line growth inhibition, 48 h

In one line, give reported TGI of the entry O=[N+]([O-])c1ccc(N=Nc2c(O)c(S(=O)(=O)O)cc3cc(S(=O)(=O)O)ccc23)cc1 . > 100 µM

In one line, give reported TGI of the entry COc1cc2c(cc1O)CC13CCC(=O)N1CCc1cc(OC)c(O)c-2c13 (configuration not stated) . > 68.1 µM

In one line, give reported TGI of the entry O=C1/C(=C/c2ccccc2[N+](=O)[O-])N=C(c2ccccc2)N1C1Nc2cc3c(cc2S1)NC(N1C(=O)/C(=C/c2ccccc2[N+](=O)[O-])N=C1c1ccccc1)S3 (configuration not stated) . > 100 µM

In one line, give reported TGI of the entry NCCNc1cccc2ccccc12 . > 100 µM

In one line, give reported TGI of the entry CC(C)NC(=O)OCc1c(COC(=O)NC(C)C)c(-c2ccc(Cl)cc2)n2c1CCC2 . 13.5 µM

In one line, give reported TGI of the entry NS(=O)(=O)c1cccc(N=Cc2c(O)[nH]c3ccccc23)c1 . > 25 µM

In one line, give reported TGI of the entry CC(=O)OC1(C)C(=O)OC1(C)C(C)=O (configuration not stated) . > 100 µM

In one line, give reported TGI of the entry COc1ccc2nc3cc(Cl)ccc3c(NCCCNCCC(C)O)c2c1 (configuration not stated) . 2.46 µM

In one line, give reported TGI of the entry C=C1C(=O)OCC2C(C(=O)O)=CC3C(C)C(C)=CC123 (configuration not stated) . 66.3 µM

In one line, give reported TGI of the entry CN(C)Cc1cc(O)c(O)c(CN(C)C)c1 . > 100 µM

In one line, give reported TGI of the entry O=c1cc(-c2ccccc2)[nH]n1-c1nc2ccccc2[nH]1 . > 100 µM

In one line, give reported TGI of the entry COc1ccc2c(c1)C(c1ccccc1Cl)=Nc1c(n[nH]c1C)N2 . > 25 µM

In one line, give reported TGI of the entry COc1ccc(C(=O)c2cc3c(OC)c(OC)c(OC)cc3[nH]2)cc1 . > 100 µM

In one line, give reported TGI of the entry CC(=O)O/N=C1/C(c2c(O)[nH]c3cc(Br)ccc23)=Nc2ccccc21 . 4.17 µM

In one line, give reported TGI of the entry O=Nc1ccc2ccccc2c1O . 30.4 µM

In one line, give reported TGI of the entry CN(C)CCNC(=O)c1cccc2nc3c(nc12)-c1ccccc1C3=O . 90.1 µM

In one line, give reported TGI of the entry CN1CC(C(=O)C2C(=O)c3ccccc3C2=O)C(=O)C(=O)C(C(=O)C2C(=O)c3ccccc3C2=O)C1 (configuration not stated) . > 100 µM

In one line, give reported TGI of the entry CCCNC(C#N)c1ccc(C(C#N)NCCC)cc1 (configuration not stated) . > 100 µM

In one line, give reported TGI of the entry CN1CCN(Cc2ccc(NC(=O)c3ccc(C#Cc4c(N)ncc5ccc(F)cc45)cc3)cc2C(F)(F)F)CC1 . 1.85 µM

In one line, give reported TGI of the entry CCOC(=O)/C=C(\C(=O)OCC)n1ccc(N)nc1=O . > 100 µM

In one line, give reported TGI of the entry NC(=O)C(c1ccccc1)N1CCOCC1 (configuration not stated) . > 100 µM

In one line, give reported TGI of the entry O=C(Nc1ccccc1O)c1ccc(Oc2cccc(C(=O)Nc3ccccc3O)c2)cc1 . 35 µM

----------
System: OVCAR-4 ovarian
Experiment: NCI tumour cell line growth inhibition, 48 h
readout.name: TGI

In one line, give reported TGI of the entry CC1=CCC23C(C1)OC(Br)(C=CC2(C)O)C3(C)C (centres undefined) . > 100 µM

In one line, give reported TGI of the entry CCCCc1ccc(Nc2ncc3[nH]cnc3n2)cc1 . 80.1 µM

In one line, give reported TGI of the entry CO[C@@H]1/C=C(C)/C=C/[C@@H](C)/C=C(\C)C(=O)OC(/C(C)=C/C=C(\C)CNC(=O)[C@H](CO)NC=O)[C@@H](C)/C=C/C=C/[C@H](OC)CC/C=C(C)/C=C/C1 (some centres undefined) . > 50 µM

In one line, give reported TGI of the entry COc1ccc(C(=O)c2cc3c(OC)c(OC)c(OC)cc3[nH]2)cc1 . > 100 µM

In one line, give reported TGI of the entry COC(=O)/C=C(/C(=O)OC)c1c(C)c(C)c2c(C)cc(C)cc(C)c1-2 . > 100 µM

In one line, give reported TGI of the entry CCOC(=O)/C=C(\C(=O)OCC)n1ccc(N)nc1=O . > 100 µM

In one line, give reported TGI of the entry COc1cc2c(cc1O)CC13CCC(=O)N1CCc1cc(OC)c(O)c-2c13 (centres undefined) . > 68.1 µM

In one line, give reported TGI of the entry O=C(N/N=C/c1cc(Cl)cc(Cl)c1[O-])c1ccccc1O.O=C(N/N=C/c1cc(Cl)cc(Cl)c1[O-])c1ccccc1O.[Ni+2] . 1.21 µM

In one line, give reported TGI of the entry COc1ccc(/C=C/C(=O)Oc2cc(O)cc(O)c2)cc1 . > 100 µM
